# Measurement Target: T1, quenched fluorescence peptidic substrate containing SKGR/SL (P4-P2' of the PAR-2 activation cleavage site, Ser 33 to Leu 38)
# T1 chain: SKGRSL
Recorded Endpoint: SKGR/SL kcat/Km (M⁻¹ s⁻¹)
Reply numerically in M⁻¹ s⁻¹, unit not repeated.

Sample records with SKGR/SL kcat/Km:
Note to self: SKGR/SL kcat/Km recorded for Q38H/I41S/D60bT/F60eS/Y60gW/D96Y/F97E/ins97aV/T98G/F99L/C122S/G151H/Q175L/Q192D (protein) VVGGTDADEGEWPWQVSLHALGHGHSCGASLISPNWLVSAAHCYIDTRGSRWSDPTQWTAFLGLHDQSQRSAPGVQERRLKRIISHPFFNYEVGLDYDIALLELEKPAEYSSMVRPISLPDASHVFPAGKAIWVTGWGHTQYGGTHALILQKGEIRVINQTTCENLLPQLITPRMMCVGFLSGGVDSCDGDSGGPLSSVEADGRIFQAGVVSWGDGCAQRNKPGVYTRLPLFRDWIKENTGV was 865

Note to self: SKGR/SL kcat/Km recorded for Q38H/I41A/D60bT/F60eK/Y60gW/F97T/ins97aE/T98G/F99L/C122S/G151H/Q175L/Q192D (protein) VVGGTDADEGEWPWQVSLHALGHGHACGASLISPNWLVSAAHCYIDTRGKRWSDPTQWTAFLGLHDQSQRSAPGVQERRLKRIISHPFFNDTEGLDYDIALLELEKPAEYSSMVRPISLPDASHVFPAGKAIWVTGWGHTQYGGTHALILQKGEIRVINQTTCENLLPQLITPRMMCVGFLSGGVDSCDGDSGGPLSSVEADGRIFQAGVVSWGDGCAQRNKPGVYTRLPLFRDWIKENTGV was 742

Others:
Measured SKGR/SL kcat/Km of Q38H/I41A/D60bT/F60eK/Y60gW/F97T/ins97aE/T98G/F99L/C122S/G151N/Q175L/Q192D (protein) VVGGTDADEGEWPWQVSLHALGHGHACGASLISPNWLVSAAHCYIDTRGKRWSDPTQWTAFLGLHDQSQRSAPGVQERRLKRIISHPFFNDTEGLDYDIALLELEKPAEYSSMVRPISLPDASHVFPAGKAIWVTGWGHTQYGGTNALILQKGEIRVINQTTCENLLPQLITPRMMCVGFLSGGVDSCDGDSGGPLSSVEADGRIFQAGVVSWGDGCAQRNKPGVYTRLPLFRDWIKENTGV : 245
